Data origin: ChEMBL document CHEMBL3507680

# Measurement Description: Human HepG2 cell viability assay in 384 well format
# Format: toxicity, cell-based
# Set-up: dose 125 nL, time 70.5 hour; concentration not given beside the values
# Recorded Conditions: HepG2 cells, read-out: Inhibition
Parameter cytotoxicity at 70.5 h: see the listing below.
Measured Attribute: cytotoxicity at 70.5 h (%)

>>> result_number("CCn1cnc2c(cnn2-c2cccc(C)c2C)c1=O")
45.8
>>> result_number("Cn1cc(N2C(=O)CC[C@@H]3[C@H]2CCN3CC2CCOCC2)cn1")
-14.3
>>> result_number("COCCO[C@H]1CCN(C(=O)c2cc(C)on2)[C@H]1Cc1ccccc1")
0.559
>>> result_number("Cc1ccnn1CCC(=O)N1C[C@H]2CC[C@@H]1CN(CC(=O)N(C)C)C2")
-0.432
>>> result_number("CN(C)CC1CN(Cc2coc(-c3ccccc3)n2)CCO1 (configuration not stated)")
-5.29
>>> result_number("COCCN1C(=O)C2(CCC(C(=O)Nc3cccc(C)c3)CC2)N=C1C (configuration not stated)")
-9.96
>>> result_number("COc1nc(C)c(C(=O)N(C)Cc2nc(-c3ccccn3)no2)s1")
5.05
>>> result_number("CC(C(=O)N1CCc2ccccc21)N1CCc2cncnc2C1 (configuration not stated)")
-3.31
>>> result_number("Cc1noc(C)c1CN1C[C@@H]2CCCO[C@@H]2[C@H](Nc2ccccn2)C1")
-4.07
>>> result_number("CCS(=O)(=O)c1ncc(CN(C)CCc2ccccn2)n1CCOC")
-8.19
>>> result_number("CCc1cnc2c(c1Nc1ccncc1)c(=O)n(C)c(=O)n2C")
20.3
>>> result_number("CC1CN(C(=O)CN(Cc2ccco2)C2CC2)CCO1 (configuration not stated)")
-10.6
>>> result_number("O=C(CN1CCCC(Cn2cncn2)C1)Nc1cccnc1 (configuration not stated)")
0.545
>>> result_number("CC(=O)N(Cc1ncc(C)o1)C1CCN(CCc2ccncc2)C1 (configuration not stated)")
7.37
>>> result_number("c1cncc(CN(CCCn2ccnc2)CC2CCOC2)c1 (configuration not stated)")
-1.27
>>> result_number("CCc1nc(-c2cncnc2C2CCNC2)no1 (configuration not stated)")
18
>>> result_number("Cc1sc(NC(=O)CN2CCCC(c3ncc[nH]3)C2)c(C)c1C (configuration not stated)")
-14.9
